- ASSAY COMMENT: refractive index (Na D-line) (dimensionless)
- APPLIED CONDITIONS: 298.15 K; 101.33 kPa; Liquid; Standard Abbe refractometry
± gives the expanded uncertainty stated by the source.
PARAMETER MEASURED: refractive index

Ask: Quick one: refractive index for "C1CCCCCCC1" ?
Reply: 1.45598 ± 0.0007

Ask: Query (compound): "CC1CCCCC1" ; field requested: refractive index
Reply: 1.42062 ± 0.00063

Ask: Any idea what refractive index was measured for "CCc1ccccc1" ?
Reply: 1.49304 ± 0.00063

Ask: Look up refractive index: "Cc1ccccc1"
Reply: 1.49399 ± 0.00068

Ask: Entry under review: "c1ccccc1" . Reported refractive index?
Reply: 1.49774 ± 0.00073

Ask: Value lookup for refractive index; key = "C1CCCCC1"
Reply: 1.4236 ± 0.00064

* * *

- APPLIED CONDITIONS: 283.15 K; 101 kPa; Liquid; Pulse-echo method
PARAMETER MEASURED: speed of sound (m/s)
Numbers only; they are read as m/s.

Sample records with speed of sound:
[
  {
    "MOLECULE": "CC1CCCCC1 [methylcyclohexane]",
    "UNITS TEXT": "m/s",
    "REPORTED VALUE": 1281
  },
  {
    "MOLECULE": "Cc1ccccc1 [toluene]",
    "UNITS TEXT": "m/s",
    "REPORTED VALUE": 1371
  },
  {
    "MOLECULE": "c1ccccc1 [benzene]",
    "UNITS TEXT": "m/s",
    "REPORTED VALUE": 1371
  }
]

Ask: Recorded speed of sound of C1CCCCC1 [cyclohexane] , please.
Reply: 1329

Ask: Please give the measured speed of sound for this molecule: CCc1ccccc1 [ethylbenzene]
Reply: 1382

* * *

- APPLIED CONDITIONS: 298.15 K; 101 kPa; Liquid
PARAMETER MEASURED: mass density (kg/m3)
The reply should be a number in kg/m3, with the unit left off.

Example molecules with recorded mass density:
[
  {
    "TEST SMILES": "C1CCCCCCC1",
    "mass density [kg/m3]": 831.5
  },
  {
    "TEST SMILES": "Cc1ccccc1",
    "mass density [kg/m3]": 862.2
  },
  {
    "TEST SMILES": "CCc1ccccc1",
    "mass density [kg/m3]": 862.5
  },
  {
    "TEST SMILES": "C1CCCCC1",
    "mass density [kg/m3]": 773.9
  }
]

The record that follows has no mass density shown yet.
Ask: Which mass density reading was recorded for the molecule "CC1CCCCC1" ?
Reply: 765.1

* * *

Entries and their mass density
- APPLIED CONDITIONS: 283.15 K; 101 kPa; Liquid
Give just the number in kg/m3; leave the unit off.

Study these solved cases before continuing.
[
  {
    "TEST SMILES": "CCc1ccccc1",
    "mass density / kg/m3": 875.7
  },
  {
    "TEST SMILES": "C1CCCCC1",
    "mass density / kg/m3": 787.8
  },
  {
    "TEST SMILES": "c1ccccc1",
    "mass density / kg/m3": 889.5
  },
  {
    "TEST SMILES": "Cc1ccccc1",
    "mass density / kg/m3": 876.1
  }
]

Ask: # mass density lookup, item "CC1CCCCC1"
Reply: 777.9
